- Target: KRas G12D (Homo sapiens, UniProt P01116, G12D);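 also: TR-FRET displacement binding assay on KRas, read after a one-hour incubation at room temperature, IC50 fitted from percent-of-control values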
- Sequence (P01116 1-169 isoform P01116-2 G12D): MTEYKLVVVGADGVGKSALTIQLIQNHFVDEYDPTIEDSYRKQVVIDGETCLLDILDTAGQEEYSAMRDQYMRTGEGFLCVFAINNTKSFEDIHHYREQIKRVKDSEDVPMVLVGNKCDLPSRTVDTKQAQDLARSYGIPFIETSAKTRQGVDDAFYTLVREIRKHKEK
- Experiment summary: biochemical
Endpoint label: IC50 (nM)

a. C#Cc1c(F)ccc2cc(O)cc(-c3ncc4c(N5CCCC(O)C5)nc(OCCN(C)C)nc4c3F)c12 (stereo not drawn)
b. Fc1c(-c2cccc3cccc(F)c23)ncc2c(N3CCCC4(COC4)C3)nc(OCC34CCCN3CCC4)nc12
c. CCc1c(F)ccc2cc(O)cc(-c3ncc4c(N5CCCSCC5)nc(OC[C@@]56CCCN5C[C@H](F)C6)nc4c3F)c12
Task: List these items ordered by IC50, big to small. Reply: labels, ordered per the request.
Output: b, a, c
